# TARGET_OF_ASSAY: Calmodulin-Dependent Phosphodiesterase (Ca^2+ PDE)
# EXPERIMENT: Calmodulin-Dependent Phosphodiesterase Inhibition (Ca^2+ PDE)
# RUN_CONDITIONS: [^3 H]-cGMP, 30° C.
Could you please report measured pIC50 for the items listed next?
// pIC50: -log10(molar conc.)

## Task Find the measured pIC50 of Cc1ccc(COC2CCN(CC(Cc3ccc(O)cc3)NS(=O)(=O)c3cccc4cnccc34)CC2)cc1 (stereo not drawn) and report it.
## Result 4.12

## Task Find the measured pIC50 of COc1ccc(CC(CN2CCC(OCc3ccc(Cl)c(Cl)c3)CC2)N(C)S(=O)(=O)c2cccc3cnccc23)cc1 (stereo not drawn) and report it.
## Result 5.00

## Task Find the measured pIC50 of CN(C(Cc1ccc(O)cc1)CN1CCC(c2ccccc2)CC1)S(=O)(=O)c1cccc2cnccc12 (stereo not drawn) and report it.
## Result 5.47
